test-protocol: Assay C: Permeability in CACO-2 cells
Format: in vitro ADME
particulars: human, pH 7.2; Caco-2, permeability B−A/permeability A−B

| compound | efflux ratio |
| --- | --- |
| Cn1cnnc1C1(F)CCN(c2c(-c3ccc(F)nc3)ccc(Cl)c2C#N)CC1 [Example 28] | 1.7 |
| Cn1cnnc1C1CCN(c2c(C#N)cc(F)cc2-c2cnc3nn(C(C)(C)C)c(Cl)c3c2)CC1 [Example 26] | 3.9 |
| Cn1cnnc1C1CCN(c2c(C#N)cc(C(F)(F)F)cc2-c2ccc(F)nc2)CC1 [Example 3] | 10.4 |
| Cn1cnnc1C1CCN(c2c(C#N)cc(F)cc2-c2ccc(F)nc2)CC1 [Example 7] | 2.1 |

---

Test system: SIRPα signalling induced by A549 cells
test-protocol: Assay B: SIRPα signalling assay using A549 cells
Format: cell-based
particulars: Homo sapiens, 48 h compound incubation, Jurkat PathHunter SIRPaV1 reporter cells, read-out: Inhibition of SIRPα signalling induced by A549 cells: IC50
pIC50: −log10 of the molar value.

| smiles-entry | pIC50 |
| --- | --- |
| Cn1cnnc1C1(F)CCN(c2c(-c3ccc(F)nc3)ccc(C(F)(F)F)c2C#N)CC1 | 7.72 |
| Cn1cnnc1C1(F)CCN(c2c(-c3cnc4nn(C(C)(C)C)cc4c3)ccc(OCCC(C)(C)O)c2C#N)CC1 | 7.14 |
| COC(=O)c1cc(C#N)c(N2CCC(c3nncn3C)CC2)c(-c2ccc(F)nc2)c1 | 6.66 |
| COc1ccc(C#N)c(N2CCC(F)(c3nncn3C)CC2)c1-c1ccc(F)nc1 | 8.22 |

---

System: SIRPα signalling induced by Raji cells
test-protocol: Assay B: SIRPα signalling assay using Raji cells
Type: cell-based
particulars: Homo sapiens, 48 h compound incubation, Jurkat PathHunter SIRPaV1 reporter cells, read-out: Inhibition of SIRPα signalling induced by Raji cells: IC50
pIC50: −log10 of the molar value.
Quick reference for pIC50 among some compounds

| smiles-entry | pIC50 |
| --- | --- |
| Cn1cnnc1C1CCN(c2c(-c3ccc(F)nc3)ccc(F)c2C#N)CC1 | 6.91 |
| COc1ccc(-c2ccc(F)nc2)c(N2CCC(c3nncn3C)CC2)c1C#N | 6.99 |
| Cn1cnnc1C1CCN(c2c(C#N)cc(Cl)cc2-c2cnc3nn(C(C)(C)C)cc3c2)CC1 | 7.77 |
| Cn1cnnc1C1CCN(c2c(C#N)cc(F)cc2-c2ccc(F)nc2)CC1 | 7.32 |
| Cn1cnnc1C1CCN(c2c(C#N)ccc(OCc3ccccc3)c2-c2ccc(F)nc2)CC1 | 7.70 |
| Cn1cnnc1C1CCN(c2c(C#N)ccc(OCC3CC3)c2-c2ccc(F)nc2)CC1 | 7.36 |
| COc1ccc(-c2cnc3nn(C(C)(C)C)cc3c2)c(N2CCC(F)(c3nncn3C)CC2)c1C#N | 7.70 |
| Cn1cnnc1C1CCN(c2c(-c3ccc(F)nc3)ccc(C(F)(F)F)c2C#N)CC1 | 7.11 |
| Cn1cnnc1C1(F)CCN(c2c(C#N)cc(C(F)(F)F)cc2-c2cnc3nc(C(F)(F)F)cn3c2)CC1 | 7.77 |
| Cn1cnnc1C1CCN(c2c(C#N)ccc(OC(F)F)c2-c2ccc(F)nc2)CC1 | 7.02 |
| Cn1cnnc1C1(F)CCN(c2c(-c3cnc4nn(C(C)(C)C)cc4c3)ccc(C(F)(F)F)c2C#N)CC1 | 7.72 |
| Cn1cnnc1C1(F)CCN(c2c(C#N)cc(C(F)(F)F)cc2-c2ccnnc2)CC1 | 7.72 |
| Cn1cnnc1C1(F)CCN(c2c(-c3ccc(F)nc3)ccc(C(F)(F)F)c2C#N)CC1 | 7.11 |
| Cn1cnnc1C1(F)CCN(c2c(-c3cnc4nn(C(C)(C)C)cc4c3)ccc(Cl)c2C#N)CC1 | 7.72 |
| Cn1cnnc1C1(F)CCN(c2c(C#N)cc(Cl)cc2-c2cnc3nn(C(C)(C)C)cc3c2)CC1 | 8.05 |
| Cn1cnnc1C1(F)CCN(c2c(C#N)cc(C(F)(F)F)cc2-c2cnc3nn(C(C)(C)C)cc3c2)CC1 | 8.30 |
| Cn1cnnc1C1(F)CCN(c2c(C#N)cc(F)cc2-c2ccc(F)nc2)CC1 | 7.33 |
| Cn1cnnc1C1(F)CCN(c2c(C#N)cc(F)cc2-c2cnc3nn(C(C)(C)C)c(Cl)c3c2)CC1 | 7.80 |
| Cn1cnnc1C1CCN(c2c(C#N)cc(Cl)cc2-c2ccc(F)nc2)CC1 | 7.52 |
| Cn1cnnc1C1(F)CCN(c2c(C#N)cc(C(F)(F)F)cc2-c2ccc(F)nc2)CC1 | 7.77 |
| CC(C)Oc1ccc(C#N)c(N2CCC(c3nncn3C)CC2)c1-c1ccc(F)nc1 | 7.28 |
| COc1cc(-c2cc(C(F)(F)F)cc(C#N)c2N2CCC(F)(c3nncn3C)CC2)cnn1 | 6.56 |
| Cn1cnnc1C1CCN(c2c(C#N)cc(F)cc2-c2cnc3nn(C(C)(C)C)c(Cl)c3c2)CC1 | 7.80 |
| COC(=O)c1cc(C#N)c(N2CCC(c3nncn3C)CC2)c(-c2ccc(F)nc2)c1 | 6.51 |
| Cn1cnnc1C1CCN(c2c(C#N)cc(C(F)(F)F)cc2-c2ccc(F)nc2)CC1 | 7.72 |
| Cn1cnnc1C1(F)CCN(c2c(C#N)cc(C(F)(F)F)cc2-c2cnc3nn(C(F)(F)F)cc3c2)CC1 | 8.10 |
| Cn1cnnc1C1(F)CCN(c2c(C#N)cc(C(F)(F)F)cc2-c2cnc3nc(C4(C)CC4)nn3c2)CC1 | 7.80 |
| Cn1cnnc1C1CCN(c2c(C#N)cc(C#N)cc2-c2ccc(F)nc2)CC1 | 6.49 |
| Cn1cnnc1C1(F)CCN(c2c(-c3cnc4nn(C(C)(C)C)cc4c3)ccc(OCCC(C)(C)O)c2C#N)CC1 | 7.44 |
| Cn1cnnc1C1(F)CCN(c2c(-c3ccc(F)nc3)ccc(Cl)c2C#N)CC1 | 7.03 |
| Cn1cnnc1C1(F)CCN(c2c(C#N)cc(F)cc2-c2cnc3nn(C(C)(C)C)cc3c2)CC1 | 7.64 |
| COc1ccc(C#N)c(N2CCC(F)(c3nncn3C)CC2)c1-c1ccc(F)nc1 | 7.46 |

Every entry's value here was drawn from patent US20240317712A1.
